Taken from patent US20240293512A1.

Listed binders paired with reported In vitro activity compared with native peptide (%) vs Glucagon (cAMP EC50)
system.under.test: human GCG receptor (human, UniProt P47871 26-477)
Sequence (P47871 26-477): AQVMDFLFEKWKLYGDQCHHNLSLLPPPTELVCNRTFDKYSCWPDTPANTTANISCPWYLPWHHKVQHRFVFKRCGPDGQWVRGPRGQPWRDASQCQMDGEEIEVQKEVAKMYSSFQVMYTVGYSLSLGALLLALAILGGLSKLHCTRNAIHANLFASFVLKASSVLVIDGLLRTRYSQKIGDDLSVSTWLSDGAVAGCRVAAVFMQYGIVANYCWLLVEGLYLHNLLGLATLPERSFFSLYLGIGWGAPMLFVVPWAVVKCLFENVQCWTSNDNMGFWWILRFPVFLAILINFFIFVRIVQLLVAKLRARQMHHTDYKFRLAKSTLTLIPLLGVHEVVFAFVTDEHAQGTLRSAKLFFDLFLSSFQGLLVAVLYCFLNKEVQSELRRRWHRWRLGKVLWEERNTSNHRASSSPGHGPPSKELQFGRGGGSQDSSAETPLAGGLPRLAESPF
experimental.protocol: cell-based or functional assay
Bridge positions count the residues as written; N and C are the ends. Square brackets hold non-standard residues; d marks the D form. Ends that are not written are not given here. * marks the point of attachment. Acetyl(2-(4-imidazolyl)) = O=C(Cc1c[nH]cn1)*; Aib = CC(C)(N)C(=O)O
# value in %; strip the unit string

The examples below pair each entry with its known result.
binder="Y[Aib]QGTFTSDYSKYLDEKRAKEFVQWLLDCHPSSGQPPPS (bridge 16-20) [triple agonist of SEQ ID NO: 97]" numeric_result=62.8
binder="Y[Aib]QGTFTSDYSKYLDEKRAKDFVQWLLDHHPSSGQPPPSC (bridge 16-20) [triple agonist of SEQ ID NO: 76]" numeric_result=47.6
binder="H[Aib]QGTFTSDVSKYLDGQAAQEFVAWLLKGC [triple agonist of SEQ ID NO: 8]" numeric_result=0.1
binder="H[Aib]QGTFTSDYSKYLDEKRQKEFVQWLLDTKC (bridge 16-20) [triple agonist of SEQ ID NO: 78]" numeric_result=14
binder="H[Aib]QGTFTSDYSKYLDERACQDFVQWLLDQGGPSSGAPPPS [triple agonist of SEQ ID NO: 27]" numeric_result=0.8
binder="Y[Aib]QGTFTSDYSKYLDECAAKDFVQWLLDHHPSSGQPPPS (bridge (positions not given here); ends not checked; also: ring formation between two underlined residues) [triple agonist of SEQ ID NO: 67]" numeric_result=46.2
binder="H[Aib]QGTFTSDYSKYLDEKAAKEFVQWLLNTC (bridge 16-20) [triple agonist of SEQ ID NO: 29]" numeric_result=6
binder="Y[Aib]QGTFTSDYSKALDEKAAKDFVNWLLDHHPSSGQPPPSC (bridge 16-20) [triple agonist of SEQ ID NO: 99]" numeric_result=14.9

get_value(item= [Acetyl(2-(4-imidazolyl))][Aib]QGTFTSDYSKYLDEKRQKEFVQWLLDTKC (bridge 16-20) [triple agonist of SEQ ID NO: 89] , readout=In vitro activity compared with native peptide (%) vs Glucagon (cAMP EC50)) returns 0.7

get_value(item= Y[Aib]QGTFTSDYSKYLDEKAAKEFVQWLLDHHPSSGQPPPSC (bridge 16-20) [triple agonist of SEQ ID NO: 75] , readout=In vitro activity compared with native peptide (%) vs Glucagon (cAMP EC50)) returns 8.5

get_value(item= Y[Aib]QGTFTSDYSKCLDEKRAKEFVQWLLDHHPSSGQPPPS (bridge 16-20) [triple agonist of SEQ ID NO: 22] , readout=In vitro activity compared with native peptide (%) vs Glucagon (cAMP EC50)) returns 140
